Measured values drawn from patent US20080176923A1 for this set.

# Tested on: BxPC3 pancreas tumor cell line
# Method: tumor cell proliferation test (EZ4U tetrazolium), BxPC3
# Assay type: cell-based
# Study Conditions: Homo sapiens, BXPC-3, 96 h; BxPC3, 400 μg/ml, 4 days; read-out: inhibition of cellular proliferation
Measured Attribute: inhibition at 400 µg/mL (%)
// return numeric value only (unit: %, not printed)

The compound CN1CC(O)C[C@H]1C(=O)O (some centres unmarked) [Substance A0.21, 4-hydroxy-1-methylproline] showed inhibition at 400 µg/mL equal to 16.2

The compound CC(C)COC(=O)[C@@H]1CC(O)CN1C (some centres unmarked) [Substance A2.21, 4-hydroxy-1-methylproline isobutyl ester] showed inhibition at 400 µg/mL equal to 4.9

The compound CCOC(=O)[C@@H]1CC(OC(=O)Nc2ccccc2)CN1C (some centres unmarked) showed inhibition at 400 µg/mL equal to 0

The compound CC(C)COC(=O)[C@@H]1CC(OC(=O)Nc2ccccc2)CN1C (some centres unmarked) showed inhibition at 400 µg/mL equal to 2.1

# ---- query compound ----
The compound CCOC(=O)[C@@H]1CC(O)CN1C (some centres unmarked) [Substance A1.21, 4-hydroxy-1-methylproline ethyl ester] showed inhibition at 400 µg/mL equal to 13.4

* * *

# System: all 6 cell lines (MIA-PaCa2, Colo205, BxPC3, MDA-MB435, BT20, HT29)
# Method: tumor cell proliferation test, mean value for all 6 cell lines
# Type: cell-based
# Study Conditions: 400 μg/ml; read-out: inhibition; mean value±SEM for all 6 cell lines
Measured Attribute: inhibition at 400 µg/mL (%)
// return numeric value only (unit: %, not printed)

The compound CCOC(=O)[C@@H]1CC(O)CN1C (some centres unmarked) [Substance A1.21, 4-hydroxy-1-methylproline ethyl ester] showed inhibition at 400 µg/mL equal to 36.5

***
The compound CN1CC(O)C[C@H]1C(=O)O (some centres unmarked) [Substance A0.21, 4-hydroxy-1-methylproline] showed inhibition at 400 µg/mL equal to 16.3

* * *

# System: BT20 breast cancer cell line
# Method: tumor cell proliferation test (EZ4U tetrazolium), BT20
# Assay type: cell-based
# Study Conditions: Homo sapiens, BT-20, 96 h; BT20, 400 μg/ml, 4 days; read-out: inhibition of cellular proliferation
Measured Attribute: inhibition at 400 µg/mL (%)
// return numeric value only (unit: %, not printed)

Consider the following illustrative entries.
The compound CN1CC(O)C[C@H]1C(=O)O (stereo partly drawn) [Substance A0.21, 4-hydroxy-1-methylproline] showed inhibition at 400 µg/mL equal to 14.9

The compound CC(C)COC(=O)[C@@H]1CC(O)CN1C (stereo partly drawn) [Substance A2.21, 4-hydroxy-1-methylproline isobutyl ester] showed inhibition at 400 µg/mL equal to 3.9

The compound CC(C)COC(=O)[C@@H]1CC(OC(=O)Nc2ccccc2)CN1C (stereo partly drawn) [Substance A2.23] showed inhibition at 400 µg/mL equal to 0

The compound O=C(O)[C@@H]1C[C@H](O)CN1 [CHP, cis-4-hydroxy-L-proline, reference compound] showed inhibition at 400 µg/mL equal to 10.6

The compound CCOC(=O)[C@@H]1CC(OC(=O)Nc2ccccc2)CN1C (stereo partly drawn) [Substance A1.23] showed inhibition at 400 µg/mL equal to 1.3

***
The compound CCOC(=O)[C@@H]1CC(O)CN1C (stereo partly drawn) [Substance A1.21, 4-hydroxy-1-methylproline ethyl ester] showed inhibition at 400 µg/mL equal to 80.1

* * *

# Tested on: Colo205 colon cancer cell line
# Method: tumor cell proliferation test (EZ4U tetrazolium), Colo205
# Format: cell-based
# Study Conditions: Homo sapiens, COLO 205; substances dissolved in water; read-out: IC50 Colo205
Measured Attribute: IC50 (µg/mL)
// return numeric value only (unit: µg/mL, not printed)

Consider the following illustrative entries.
The compound CCOC(=O)C1CC(O)CN1 [Substance A-1, cis-hydroxy-L-proline ethyl ester] showed IC50 equal to 50

The compound CC(C)COC(=O)C1CC(O)CN1 [Substance A2, cis-hydroxy-L-proline isobutyl ester] showed IC50 equal to 18

The compound CC(C)COC(=O)[C@@H]1CC(O)CN1C1CCCCC1 (some centres unmarked) showed IC50 equal to 50

***
The compound Br.CC(C)COC(=O)[C@@H]1CC(O)CN1C(c1ccccc1)c1ccccc1 (some centres unmarked) showed IC50 equal to 6.2

* * *

# System: Colo205 colon cancer cell line
# Method: tumor cell proliferation test (EZ4U tetrazolium), Colo205
# Format: cell-based
# Study Conditions: Homo sapiens, COLO 205, 96 h; Colo205, 200 μg/ml, 4 days; read-out: inhibition of cellular proliferation
Measured Attribute: inhibition at 200 µg/mL
In your response, the unit should come after the numeric value.

The compound CC(C)COC(=O)[C@@H]1CC(O)CN1C (some centres unmarked) [Substance A2.21, 4-hydroxy-1-methylproline isobutyl ester] showed inhibition at 200 µg/mL equal to 14.1%

The compound CN1CC(O)C[C@H]1C(=O)O (some centres unmarked) [Substance A0.21, 4-hydroxy-1-methylproline] showed inhibition at 200 µg/mL equal to 21.1%

The compound CCOC(=O)[C@@H]1CC(OC(=O)Nc2ccccc2)CN1C (some centres unmarked) showed inhibition at 200 µg/mL equal to 17.2%

The compound CC(C)COC(=O)[C@@H]1CC(OC(=O)Nc2ccccc2)CN1C (some centres unmarked) showed inhibition at 200 µg/mL equal to 19.2%

The compound CCOC(=O)[C@@H]1CC(O)CN1C (some centres unmarked) [Substance A1.21, 4-hydroxy-1-methylproline ethyl ester] showed inhibition at 200 µg/mL equal to 23.7%

* * *

inhibition at 400 µg/mL overview
# Tested on: all 6 cell lines (MIA-PaCa2, Colo205, BxPC3, MDA-MB435, BT20, HT29)
# Method: tumor cell proliferation test, mean value for all 6 cell lines
# Assay type: cell-based
# Study Conditions: 400 μg/ml; read-out: inhibition; mean value±SEM for all 6 cell lines

Consider the following illustrative entries.
The compound CCOC(=O)[C@@H]1CC(OC(=O)Nc2ccccc2)CN1C (stereo partly drawn) [Substance A1.23] showed inhibition at 400 µg/mL equal to < 8%

The compound CC(C)COC(=O)[C@@H]1CC(O)CN1C (stereo partly drawn) [Substance A2.21, 4-hydroxy-1-methylproline isobutyl ester] showed inhibition at 400 µg/mL equal to < 8%

# ---- query compound ----
The compound CC(C)COC(=O)[C@@H]1CC(OC(=O)Nc2ccccc2)CN1C (stereo partly drawn) [Substance A2.23] showed inhibition at 400 µg/mL equal to < 8%
